Assign IRF reporter to each entry below.
# Test system: RAW-Dual (murine macrophage reporter line)
# methodDescription: IRF reporter (Lucia luciferase) activity fold change vs agonist alone; higher = enhanced IRF activity
# experimentalConditions: modulator concentration 10 µM; agonist: 3'3'-cGAMP 10 ug/mL
Keep it simple and answer with nothing but the number.

IRF reporter reading for O=C(O)c1ccccc1O : 0.925

Note to self: IRF reporter recorded for O=C(Nc1ccon1)C1CN(C(=O)COc2ccccc2F)C1 was 1.06

compound O=C(O)CCC(=O)Nc1ccc(Br)cc1C(=O)c1ccc(Cl)cc1 , IRF reporter observed: 0.986

The measured IRF reporter associated with O=C(NCCCO)C(=O)Nc1ccccc1F reads 0.968

So for O=C1c2ccccc2C(=O)C1c1ccccn1 , the logged IRF reporter turned out to be 0.897

// recorded IRF reporter for COc1ccc(CN(CCN(C)C)c2ccccn2)cc1 [Prestw-289] : 0.976

Field IRF reporter (entry CC(C)c1cc(-c2n[nH]c(=O)n2-c2ccc3c(ccn3C)c2)c(O)cc1O ) reads 1.08

For CCC(C)n1ncn(-c2ccc(N3CCN(c4ccc(OC[C@H]5CO[C@](Cn6cncn6)(c6ccc(Cl)cc6Cl)O5)cc4)CC3)cc2)c1=O (stereo partly specified) the compound record lists IRF reporter as 0.921

Lab note: O=C(O)c1cc(NC(=O)c2ccc(Cl)c([N+](=O)[O-])c2)cc(C(=O)O)c1 gave IRF reporter of 1.03

The reported value for N[C@@H](Cc1cc(I)c(Oc2cc(I)c(O)c(I)c2)c(I)c1)C(=O)O in terms of IRF reporter is 0.572

The recorded IRF reporter for Cc1ccc2nc(NC(=O)CSc3nc4c(c(=O)n3-c3ccccc3)SCC4)sc2c1 is 0.662

----------
What NF-kB reporter was measured for each of the following?
# Tested on: RAW-Dual (murine macrophage reporter line)
# methodDescription: NF-kB reporter (SEAP) activity fold change vs agonist alone; higher = enhanced NF-kB activity
# experimentalConditions: modulator concentration 10 µM; agonist: MPLA […]
Respond numerically, and do not add a unit to the figure.

The measured NF-kB reporter associated with COc1ccc(C(=O)Nc2nc(C)c(C)s2)cc1OC reads 0.994

Measured NF-kB reporter of CCOC(=O)C1CCN(C(=O)c2ccc(C#CC(C)(C)O)cc2)CC1 : 1.1

Note to self: NF-kB reporter recorded for CCn1nccc1C(=O)N1CCN(S(C)(=O)=O)CC1 was 0.991

----------
# Test system: RAW-Dual (murine macrophage reporter line)
# methodDescription: NF-kB reporter (SEAP) activity fold change vs agonist alone; higher = enhanced NF-kB activity
# experimentalConditions: modulator concentration 10 µM; agonist: LPS 0.1 ug/mL
propertyMeasured: NF-kB reporter
Form rule: numeric answer, no unit written next to it.

What the record says about O=C(NC1CCC(Oc2ncc(F)cn2)CC1)c1cccc(F)c1 (configuration not stated) : NF-kB reporter is 1.01

The reported NF-kB reporter of the compound COC(=O)C1=C(C)NC(C)=C(C(=O)OC(C)C)C1c1cccc2nonc12 (configuration not stated) was 0.942

The reported value for COc1cccc(CC(=O)Nc2ccc(CC(=O)N3CCC(O)CC3)cc2)c1 in terms of NF-kB reporter is 1.06

Reported NF-kB reporter for CCC(O)=C(C#N)c1nc2ccccc2n1C was 0.938

// recorded NF-kB reporter for COc1cc2c(cc1OC)C1C(=O)c3ccc4c(c3OC1CO2)CCC(C)(C)O4 (configuration not stated) : 1.02

Cc1ccc2nc(C)c(NC(=O)c3ccc4ccccc4n3)c(=O)n2c1 yielded NF-kB reporter of 1.03

Lookup result for O=C(c1cccs1)c1nc2c(n1O)CCCCC2 ; measured NF-kB reporter: 1.02

----------
# Test system: RAW-Dual (murine macrophage reporter line)
# methodDescription: NF-kB reporter (SEAP) activity fold change vs agonist alone; higher = enhanced NF-kB activity
# experimentalConditions: modulator concentration 10 µM; agonist: LPS 0.1 ug/mL
propertyMeasured: NF-kB reporter
When you answer, write just the number.

Entry CC(C)c1ccc(N(CC(=O)NCCSCc2ccc(Cl)cc2)S(C)(=O)=O)cc1 ; assay system RAW-Dual (murine macrophage reporter line); NF-kB reporter recorded at 0.909

// assay RAW-Dual (murine macrophage reporter line), entry COc1ccc(Br)cc1C(=O)Nc1cc(C(F)(F)F)cc(C(F)(F)F)c1 , NF-kB reporter value = 0.99

Hey, RAW-Dual (murine macrophage reporter line) data for O=C(O)C=Cc1cccc(NS(=O)(=O)C=Cc2ccccc2)c1 : NF-kB reporter came out at 0.968

Measured NF-kB reporter (RAW-Dual (murine macrophage reporter line)), entry CC1(C)Cc2ccccc2C(=C(C#N)C#N)N1 : 0.912

I looked up COc1cc(C=C2NC(=O)NC2=O)cc(I)c1OCc1ccccc1 and its NF-kB reporter for RAW-Dual (murine macrophage reporter line) was 1.09

// returns NF-kB reporter for Cc1ccc2nc(NC(=O)CSc3nc4c(c(=O)n3-c3ccccc3)SCC4)sc2c1 with RAW-Dual (murine macrophage reporter line); value = 0.887

Query NC(N)=NN=Cc1ccc(OS(=O)(=O)c2ccccc2)cc1 on RAW-Dual (murine macrophage reporter line); NF-kB reporter returned: 0.954

I looked up COc1ccc(CNC2CCCc3ccccc32)c(OC)c1 (centres undefined) and its NF-kB reporter for RAW-Dual (murine macrophage reporter line) was 0.812

Case N#CC1=C(NC(=S)NC(=O)c2ccccc2)c2ccccc2CC12CCCC2 , RAW-Dual (murine macrophage reporter line), NF-kB reporter recorded as 0.918

Sample COc1c(O)cc(O)cc1O , system: RAW-Dual (murine macrophage reporter line). Its NF-kB reporter is 1.08

Here CNCc1cc(-c2ccccc2F)n(S(=O)(=O)c2cccnc2)c1.O=C(O)/C=C/C(=O)O was tested on RAW-Dual (murine macrophage reporter line), and its NF-kB reporter came to 1.04

The reported NF-kB reporter value, RAW-Dual (murine macrophage reporter line), for COc1ccc(-c2cc(=O)c3c(O)cc(O)cc3o2)cc1O reads 1.15

Per the reported RAW-Dual (murine macrophage reporter line) data, CC(O)(CNC(=O)CSc1ccc(F)cc1)c1ccc(-c2ccccc2)cc1 (centres undefined) has NF-kB reporter of 0.973

Entry COc1ccc(N2CC(C(=O)NCc3ccccc3C(F)(F)F)CC2=O)cc1 (centres undefined) ; assay system RAW-Dual (murine macrophage reporter line); NF-kB reporter recorded at 1.07

----------
# Tested on: RAW-Dual (murine macrophage reporter line)
# methodDescription: NF-kB reporter (SEAP) activity fold change vs agonist alone; higher = enhanced NF-kB activity
# experimentalConditions: modulator concentration 10 µM; agonist: LPS 0.1 ug/mL
What NF-kB reporter was measured for each of the following?
Please reply with the number alone, leaving off any unit.

Noted for Cn1cnc2cc(NCc3nc4ccccc4n3C)ccc21 : its NF-kB reporter reads 1.03

Value of NF-kB reporter reported for the molecule COc1ccnc(CS(=O)c2nc3ccc(OC(F)F)cc3[nH]2)c1OC (stereo not given) is 0.901

Query Clc1ccc(Cn2c(CN3CCCC3)nc3ccccc32)cc1 [Prestw-227] yields NF-kB reporter of 1.12

Per the record, CCOC(=O)C1=C(C)NC(C)=C(C(=O)OC)C1c1ccco1 (stereo not given) has NF-kB reporter of 0.955

NF-kB reporter in this record for Cc1ccc(C(=O)NC(Oc2ccc3ccccc3c2)C(Br)(Br)Br)cc1 (stereo not given) : 1.02

The molecule listed as Cc1nc2ccc(Cl)cn2c(=O)c1NC(=O)c1c(F)cccc1Cl has a reported NF-kB reporter of 1.05

Record Cc1ccc(C(C)C)c(Oc2ccccc2NC(=O)c2cc(I)cc(I)c2O)c1 , field NF-kB reporter: 0.985

Lookup result for COc1ccc(OC)c2sc(NC(=O)C(C)C)nc12 ; measured NF-kB reporter: 1.02

The molecule identified as COc1cccc(C=Nc2cccc([N+](=O)[O-])c2C)c1O registered its NF-kB reporter at 0.906

Form field NF-kB reporter, entry CCN(CCO)CCCOc1ccc2c(Nc3cc(CC(=O)Nc4cccc(F)c4)n[nH]3)ncnc2c1 : 0.902

For record Cc1ccc(CNC(=O)CN(c2cccc3ccccc23)S(C)(=O)=O)cc1 the listed NF-kB reporter is 1.03

Looking up O=C(Nc1nc2ccccc2n1CCN1CCOCC1)C1CCCCC1 , I found its NF-kB reporter recorded as 1

molecule Nc1nc2c(ncn2C2CC(O)C(CO)O2)c(=O)[nH]1 (stereo not given) , NF-kB reporter observed: 0.787

CCCCS(=O)(=O)N[C@@H](Cc1ccc(OCCCCC2CCNCC2)cc1)C(=O)O.Cl.O yielded NF-kB reporter of 1.05

Entry under test: Cl.O=C1Cc2cc(CCN3CCN(c4nsc5ccccc45)CC3)c(Cl)cc2N1 . Its NF-kB reporter was 1.06

// COCCOC(=O)C1=C(C)NC(=S)NC1c1ccccc1OC (stereo not given) : NF-kB reporter value = 0.995

Documented NF-kB reporter of CCOc1ccc(OCCCCOc2cccc(C)c2)cc1 : 1.11

Entry under test: CN(C)CCCN1c2ccccc2Sc2ccc(Cl)cc21.Cl . Its NF-kB reporter was 0.997

# NF-kB reporter of Cc1ccc(Sc2c(C)nn(-c3ccccc3)c2OC(=O)C(C)(C)C)cc1 = 0.87

The value of NF-kB reporter measured for the molecule CCC[C@@H]1C[C@@H](C(=O)N[C@@H]([C@H]2O[C@H](SC)[C@H](OP(=O)(O)O)[C@@H](O)[C@H]2O)[C@H](C)Cl)N(C)C1 turned out to be 0.954

NF-kB reporter recorded for this molecule, C[C@@H](O)[C@H]1C(=O)N2C(C(=O)O)=C(SCCNC=N)C[C@H]12 [Prestw-519] , is 0.986

Quick note, NF-kB reporter for O=S(=O)(Nc1ccnc2ccccc12)c1ccccc1 landed at 0.88

Recorded result, O=c1ccn([C@@H]2O[C@H](CO)[C@@H](O)[C@H]2O)c(=O)[nH]1 , NF-kB reporter: 0.912

Value of NF-kB reporter reported for the molecule CN1CC(O)C2=C/C(=N/NC(N)=O)C(=O)C=C21 (stereo not given) is 1

Documented NF-kB reporter of C[C@@H](Oc1cc(-c2cnn(C3CCNCC3)c2)cnc1N)c1c(Cl)ccc(F)c1Cl : 0.423

NF-kB reporter reported for this molecule CCC(Oc1ccccc1)C(=O)Nc1cc([N+](=O)[O-])ccc1C (stereo not given) : 0.865

Reported NF-kB reporter for CCc1nc(N)nc(N)c1-c1ccc(Cl)cc1 was 1.07

The recorded NF-kB reporter for entry Cc1cc(C)n(CC2CCN(Cc3ccc(Br)cc3)CC2)n1 equals 0.745

Lookup result for Cc1cnc2c(c1NCCCO)c(=O)n(C)c(=O)n2C ; measured NF-kB reporter: 1.01

# NF-kB reporter of Cc1cc(C#N)cc(C)c1Oc1nc(Nc2ccc(C#N)cc2)nc(N)c1Br = 1.3

The molecule listed as CCOC(=O)C1=C(C)N(c2ccc(OC)cc2)C(=O)C1=Cc1ccc(C(=O)O)cc1 has a reported NF-kB reporter of 1.12

Record CC(=NNC(=O)COc1ccc(Cl)cc1[N+](=O)[O-])c1cccc(Br)c1 , field NF-kB reporter: 1.11

The measured NF-kB reporter associated with CC(N)c1ccc(Nc2ncc3cc(-c4ccncc4)ccc3n2)cc1.Cl.Cl.Cl (stereo not given) reads 1.26

Recorded result, NC(=O)N1CCC(CC(=O)N2CCC([C@H]3c4ncc(Br)cc4CCc4cc(Cl)cc(Br)c43)CC2)CC1 , NF-kB reporter: 0.434

The recorded NF-kB reporter for entry Cc1c(OCc2ccc(Cl)cc2)ccc2c(C(F)(F)F)cc(=O)oc12 equals 0.94
